- Test system: DMPK;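 further: KINOMEscan kinase panel screen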
- measurementSetup: concentration: 1 μM, replicates: in singlicate; n = 1
Listing of recorded %Inh by entry.
Return type: number; implicit unit %.

These recorded examples may help you get a feel for the data.
>  <compound>
O=c1cc(N2CCOCC2)nc2n(Cc3cccc(F)c3)ccn12

>  <%Inh (%)>
12

$$$$
>  <compound>
Cc1c2ccc(N(C)c3ccnc(Nc4cccc(S(N)(=O)=O)c4)n3)cc2nn1Cc1ccccc1.Cl.Cl

>  <%Inh (%)>
8

$$$$
>  <compound>
O=c1cc(N2CCOCC2)nc2n(Cc3cccc4ccccc34)ccn12

>  <%Inh (%)>
0

$$$$
>  <compound>
COC(=O)Nc1nc2cc(Oc3ccc(NC(=O)Nc4cc(F)ccc4F)cc3)ccc2[nH]1.Cl

>  <%Inh (%)>
0

$$$$

May I ask what %Inh has been recorded for COc1cc(Nc2nccc(N3CCC(NC(=O)c4cccc(NC(C)=O)c4)C3)n2)cc(OC)c1OC (centres unmarked) ? 0
